- MEASUREMENT_PROTOCOL: Stability in mouse plasma assessed as half life at 10 uM preincubated for 5 mins followed by NADPH addition measured for 10 to 480 mins by LC-MS/MS analysis
- Assay type: ADME, cell-free
- DETAILS: time 15-485 min
READOUT_KIND: half-life at 10 µM
The answer should read as a number with its unit following.

Consider the molecule C=C(C)[C@@H]1CC[C@]2(C(=O)NCCCCCC(=O)OC)CC[C@]3(C)[C@H](CC[C@@H]4[C@@]5(C)CC[C@H](O[C@@H]6OC[C@H](O)[C@H](O)[C@H]6O[C@@H]6O[C@@H](C)[C@H](O)[C@@H](O)[C@H]6O)[C@@](C)(CO)[C@@H]5CC[C@]43C)[C@@H]12 and give its measured half-life at 10 µM. 1.14 min

----------
For each record, write down the corresponding AUC(0-t) at 12 h.
- MEASUREMENT_PROTOCOL: AUC (0 to t) in colon of ICR mouse at 15 mg/kg, IG measured for 12 hrs by LC-MS/MS analysis
- Type: ADME, organism-based
- DETAILS: po
Kindly answer with a numeric value in ng·h/mL, unit omitted.

// query AUC(0-t) at 12 h value for entry C=C(C)[C@@H]1CC[C@]2(C(=O)O[C@@H]3O[C@H](CO[C@@H]4O[C@H](CO)[C@@H](O[C@@H]5O[C@@H](C)[C@H](O)[C@@H](O)[C@H]5O)[C@H](O)[C@H]4O)[C@@H](O)[C@H](O)[C@H]3O)CC[C@]3(C)[C@H](CC[C@@H]4[C@@]5(C)CC[C@H](O[C@@H]6OC[C@H](O)[C@H](O)[C@H]6O[C@@H]6O[C@@H](C)[C@H](O)[C@@H](O)[C@H]6O)[C@@](C)(CO)[C@@H]5CC[C@]43C)[C@@H]12 30.2

What about C=C(C)[C@@H]1CC[C@]2(C(=O)NCCCCCC(=O)OC)CC[C@]3(C)[C@H](CC[C@@H]4[C@@]5(C)CC[C@H](O[C@@H]6OC[C@H](O)[C@H](O)[C@H]6O[C@@H]6O[C@@H](C)[C@H](O)[C@@H](O)[C@H]6O)[C@@](C)(CO)[C@@H]5CC[C@]43C)[C@@H]12 ? 3210

----------
- MEASUREMENT_PROTOCOL: Cmax in ICR mouse at 15 mg/kg, IG measured for 12 hrs by LC-MS/MS analysis
- Type: ADME, organism-based
- DETAILS: in vivo, po
READOUT_KIND: Cmax (ng/mL)
Write the answer as a number in ng/mL, unit excluded.

Please give the measured Cmax for this compound: C=C(C)[C@@H]1CC[C@]2(C(=O)NCCCCCC(=O)OC)CC[C@]3(C)[C@H](CC[C@@H]4[C@@]5(C)CC[C@H](O[C@@H]6OC[C@H](O)[C@H](O)[C@H]6O[C@@H]6O[C@@H](C)[C@H](O)[C@@H](O)[C@H]6O)[C@@](C)(CO)[C@@H]5CC[C@]43C)[C@@H]12 40.4

Would you mind doing C=C(C)[C@@H]1CC[C@]2(C(=O)O[C@@H]3O[C@H](CO[C@@H]4O[C@H](CO)[C@@H](O[C@@H]5O[C@@H](C)[C@H](O)[C@@H](O)[C@H]5O)[C@H](O)[C@H]4O)[C@@H](O)[C@H](O)[C@H]3O)CC[C@]3(C)[C@H](CC[C@@H]4[C@@]5(C)CC[C@H](O[C@@H]6OC[C@H](O)[C@H](O)[C@H]6O[C@@H]6O[C@@H](C)[C@H](O)[C@@H](O)[C@H]6O)[C@@](C)(CO)[C@@H]5CC[C@]43C)[C@@H]12 as well? 0.58

----------
Please provide measured MRT last at 12 h for the entries that follow.
- MEASUREMENT_PROTOCOL: MRT (0 to t) in colon of ICR mouse at 15 mg/kg, IG measured for 12 hrs by LC-MS/MS analysis
- Type: ADME, organism-based
- DETAILS: po
State the answer as a number, implicitly in h.

If you can, please state the reported MRT last at 12 h value of C=C(C)[C@@H]1CC[C@]2(C(=O)NCCCCCC(=O)OC)CC[C@]3(C)[C@H](CC[C@@H]4[C@@]5(C)CC[C@H](O[C@@H]6OC[C@H](O)[C@H](O)[C@H]6O[C@@H]6O[C@@H](C)[C@H](O)[C@@H](O)[C@H]6O)[C@@](C)(CO)[C@@H]5CC[C@]43C)[C@@H]12 . 3.32

And for C=C(C)[C@@H]1CC[C@]2(C(=O)O[C@@H]3O[C@H](CO[C@@H]4O[C@H](CO)[C@@H](O[C@@H]5O[C@@H](C)[C@H](O)[C@@H](O)[C@H]5O)[C@H](O)[C@H]4O)[C@@H](O)[C@H](O)[C@H]3O)CC[C@]3(C)[C@H](CC[C@@H]4[C@@]5(C)CC[C@H](O[C@@H]6OC[C@H](O)[C@H](O)[C@H]6O[C@@H]6O[C@@H](C)[C@H](O)[C@@H](O)[C@H]6O)[C@@](C)(CO)[C@@H]5CC[C@]43C)[C@@H]12 ? 4.38

----------
- TARGET: Pyruvate carboxylase, mitochondrial (Homo sapiens, UniProt P11498)
READOUT_KIND: IC50

Which IC50 value is on record for C=C(C)CNC(=O)[C@]12CC[C@@H](C(=C)C)[C@@H]1[C@H]1CC[C@@H]3[C@@]4(C)CC[C@H](O[C@@H]5OC[C@H](O)[C@H](O)[C@H]5O[C@@H]5O[C@@H](C)[C@H](O)[C@@H](O)[C@H]5O)[C@@](C)(CO)[C@@H]4CC[C@@]3(C)[C@]1(C)CC2 ? > 1000 nM

Same question for C=C(C)[C@@H]1CC[C@]2(C(=O)n3ccnc3)CC[C@]3(C)[C@H](CC[C@@H]4[C@@]5(C)CC[C@H](O[C@@H]6OC[C@H](O)[C@H](O)[C@H]6O[C@@H]6O[C@@H](C)[C@H](O)[C@@H](O)[C@H]6O)[C@@](C)(CO)[C@@H]5CC[C@]43C)[C@@H]12 please. > 1000 nM

Try this compound next: C=C(C)[C@@H]1CC[C@]2(C(=O)NCCCN3CCCC3)CC[C@]3(C)[C@H](CC[C@@H]4[C@@]5(C)CC[C@H](O[C@@H]6OC[C@H](O)[C@H](O)[C@H]6O[C@@H]6O[C@@H](C)[C@H](O)[C@@H](O)[C@H]6O)[C@@](C)(CO)[C@@H]5CC[C@]43C)[C@@H]12 > 1000 nM

----------
Kindly supply the reported pIC50 values for the records listed here.
- TARGET: Pyruvate carboxylase, mitochondrial (Homo sapiens)
- Sequence (P11498 whole entry): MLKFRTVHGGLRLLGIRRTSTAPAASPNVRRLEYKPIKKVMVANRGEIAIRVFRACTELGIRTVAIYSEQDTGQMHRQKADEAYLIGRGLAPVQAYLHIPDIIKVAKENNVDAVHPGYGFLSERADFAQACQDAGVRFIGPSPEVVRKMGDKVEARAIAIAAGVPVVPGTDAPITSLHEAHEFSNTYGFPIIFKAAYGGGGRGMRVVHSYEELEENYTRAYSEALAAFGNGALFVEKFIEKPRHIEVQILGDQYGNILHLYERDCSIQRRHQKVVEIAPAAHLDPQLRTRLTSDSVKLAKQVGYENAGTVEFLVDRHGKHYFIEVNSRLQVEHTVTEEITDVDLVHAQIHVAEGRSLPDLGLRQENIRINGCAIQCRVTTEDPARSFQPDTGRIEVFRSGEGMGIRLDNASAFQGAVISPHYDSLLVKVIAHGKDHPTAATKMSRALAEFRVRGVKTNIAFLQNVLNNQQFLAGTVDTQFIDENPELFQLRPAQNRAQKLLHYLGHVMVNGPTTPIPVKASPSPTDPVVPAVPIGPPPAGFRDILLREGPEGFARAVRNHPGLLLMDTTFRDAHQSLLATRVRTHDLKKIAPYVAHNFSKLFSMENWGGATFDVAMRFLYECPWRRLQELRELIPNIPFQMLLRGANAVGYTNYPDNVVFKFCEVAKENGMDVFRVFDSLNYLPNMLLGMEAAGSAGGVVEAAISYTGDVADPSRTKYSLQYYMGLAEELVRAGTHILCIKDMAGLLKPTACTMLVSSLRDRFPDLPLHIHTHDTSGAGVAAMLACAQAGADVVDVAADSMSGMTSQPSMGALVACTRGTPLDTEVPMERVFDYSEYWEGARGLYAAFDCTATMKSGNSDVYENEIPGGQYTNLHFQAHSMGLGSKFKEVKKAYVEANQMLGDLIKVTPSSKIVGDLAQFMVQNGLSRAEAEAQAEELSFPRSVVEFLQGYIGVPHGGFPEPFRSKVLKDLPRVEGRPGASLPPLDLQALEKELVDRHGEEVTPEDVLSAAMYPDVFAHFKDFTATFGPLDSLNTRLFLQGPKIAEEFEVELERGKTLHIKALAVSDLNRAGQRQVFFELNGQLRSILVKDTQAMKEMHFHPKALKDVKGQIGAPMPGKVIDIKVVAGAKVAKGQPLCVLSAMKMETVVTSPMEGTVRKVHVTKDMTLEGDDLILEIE
pIC50: −log10 of the molar value.

Value lookup for pIC50; key = C=C(C)[C@@H]1CC[C@]2(C(=O)NCCCCCC(=O)OCC(=O)[C@@]3(O)[C@H](C)C[C@H]4C5CCC6=CC(=O)C=C[C@]6(C)[C@@]5(F)[C@@H](O)C[C@@]43C)CC[C@]3(C)[C@H](CC[C@@H]4[C@@]5(C)CC[C@H](O[C@@H]6OC[C@H](O)[C@H](O)[C@H]6O[C@@H]6O[C@@H](C)[C@H](O)[C@@H](O)[C@H]6O)[C@@](C)(CO)[C@@H]5CC[C@]43C)[C@@H]12 (stereo partly drawn) < 6.00

Next: C=C(C)[C@@H]1CC[C@]2(C(=O)OC)CC[C@]3(C)[C@H](CC[C@@H]4[C@@]5(C)CC[C@H](O[C@@H]6OC[C@H](O)[C@H](O)[C@H]6O[C@@H]6O[C@@H](C)[C@H](O)[C@@H](O)[C@H]6O)[C@@](C)(CO)[C@@H]5CC[C@]43C)[C@@H]12 < 5.00

Queued: C=C(C)[C@@H]1CC[C@]2(C(=O)O)CC[C@]3(C)[C@H](CC[C@@H]4[C@@]5(C)CC[C@H](O[C@@H]6OC[C@H](O)[C@H](O)[C@H]6O[C@@H]6O[C@@H](C)[C@H](O)[C@@H](O)[C@H]6O)[C@@](C)(CO)[C@@H]5CC[C@]43C)[C@@H]12 < 5.00
